Target: T1, Cynomolgus CD3εδ Fc heterodimer (Cy CD3ε Fc / CD3δ Fc-HIS) (cynomolgus, UniProt Q95LI8 22-100)
T1 chain 1: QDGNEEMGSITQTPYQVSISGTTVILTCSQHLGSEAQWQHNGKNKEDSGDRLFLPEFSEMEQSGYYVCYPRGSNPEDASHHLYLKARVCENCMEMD
T1 chain 2: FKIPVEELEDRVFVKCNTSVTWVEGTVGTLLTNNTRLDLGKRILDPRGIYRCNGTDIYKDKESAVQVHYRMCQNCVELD
Assay: BLI (Octet), IgG on AHC sensor, pH 7.4
observed property: Kd
Answer format: number, then unit.

Solved entries (count: 2):
{"columns": ["binder", "observed property", "reported"],
 "data": [
  ["SAD10320_P01_A03 (ADI-57353) (antibody, V domains shown, IgG; also called Ab60) VH: QVQLVQSGAEVKKPGASVKVSCKASGFNIKDYYMHWVRQAPGQRLEWMGWIDLENANTIYDAKFQGRVTITRDTSASTAYMELSSLRSEDTAVYYCARDHRGRYFYDVWGQGTLVTVSS VL: DIVMTQSPDSLAVSLGERATINCKSSQSLLNARTGKNYLAWYQQKPGQPPKLLIYWASTRESGVPDRFSGSGSGTDFTLTISSLQAEDVAVYYCKQSSHRRTFGGGTKVEIK", "Kd", "78.4 nM"],
  ["LAD9954_P01_B02 (ADI-57438) (antibody, V domains shown, IgG; also called Ab168) VH: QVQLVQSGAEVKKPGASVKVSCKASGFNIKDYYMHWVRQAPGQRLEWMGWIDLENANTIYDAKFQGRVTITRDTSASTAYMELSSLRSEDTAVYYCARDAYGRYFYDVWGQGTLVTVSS VL: DIVMTQSPDSLAVSLGERATINCKSSQSLLHARTGHNYLAWYQQKPGQPPKLLIYWASTRESGVPDRFSGSGSGTDFTLTISSLQAEDVAVYYCKQSYSRRTFGGGTKVEIK", "Kd", "33.9 nM"]
]}

Consider the record given below.
Incoming: Please give the measured Kd for this binder: SAD10319_P04_B10 (ADI-57332) (antibody, V domains shown, IgG; also called Ab30) VH: QVQLVQSGAEVKKPGASVKVSCKASGYTFTSTFMHWVRQAPGQRLEWMGFIDAGTGATKYSQKFQGRVTITRDTSASTAYMELSSLRSEDTAVYYCARDAYGHYFYDHWGQGTLVTVSS VL: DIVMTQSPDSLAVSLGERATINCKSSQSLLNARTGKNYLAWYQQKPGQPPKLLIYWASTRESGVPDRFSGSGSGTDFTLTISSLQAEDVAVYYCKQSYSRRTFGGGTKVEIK
Outgoing: 58.8 nM
